This listing pairs variants with measured abundance fitness.
B1: Protein S100-G, residues 1 to 79; numbered along this chain, P02633 (parent)
chain: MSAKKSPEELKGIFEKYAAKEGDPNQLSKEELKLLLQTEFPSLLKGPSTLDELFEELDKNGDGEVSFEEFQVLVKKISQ

# Variants of: B1
# test_protocol: abundance fitness (aPCA) (normalised: wild type 0, dead -1); higher = more abundant; growth selection in yeast, the domain comes from the species named
# experimental_context: Bos taurus
// return a plain number; no unit text

MSAKKSPEELQGIFEKYAAKEGDPNQLSKEELKLLLQTEFPSLLKGPSTLDELFEELDKNGDGEVSFEEFQVLVKKISQ [K11Q] = -0.04
MSAKKSPEELKGIFEKYAAKEGDPNQLSKEELKLLLQTEFPSLLKGPSTLDELFEELDKNGLGEVSFEEFQVLVKKISQ [D62L] = -0.042
MSAKKSPEELKGIFEKYAAKEGDPNQLSKETLKLLLQTEFPSLLKGPSTLDELFEELDKNGDGEVSFEEFQVLVKKISQ [E31T] = -0.175
MSAKKSPEELKGIFEKYHAKEGDPNQLSKEELKLLLQTEFPSLLKGPSTLDELFEELDKNGDGEVSFEEFQVLVKKISQ [A18H] = -0.195
MSAKKSNEELKGIFEKYAAKEGDPNQLSKEELKLLLQTEFPSLLKGPSTLDELFEELDKNGDGEVSFEEFQVLVKKISQ [P7N] = -0.056

// MSAKKSPEELKGIFEKYQAKEGDPNQLSKEELKLLLQTEFPSLLKGPSTLDELFEELDKNGDGEVSFEEFQVLVKKISQ [A18Q] : abundance fitness value = -0.248

// MSAKKSPEELKGIFEKYAAKEGDINQLSKEELKLLLQTEFPSLLKGPSTLDELFEELDKNGDGEVSFEEFQVLVKKISQ [P24I] : abundance fitness value = 0.024

// MSAKKSPEELKGIFEKYAAKEGDPNQLSKEELKLLLQTEFPSLLKGPSTLDELFEELDKNGDGEVKFEEFQVLVKKISQ [S66K] : abundance fitness value = -0.066

// MSAKKSPEELKGIFEKYAAKEGDPNQLSKEELKLLLQTEFPSLLKGPSTLDELFEELDKNGDGEVWFEEFQVLVKKISQ [S66W] : abundance fitness value = -0.382

// MSAKKSPEELKGIFEKYAAKEGDPNQLSKEELKLLLQTEFPSLLKGPSTLDELFEELDKNGDGEVSFEEFQTLVKKISQ [V72T] : abundance fitness value = 0.053

// MSVKKSPEELKGIFEKYAAKEGDPNQLSKEELKLLLQTEFPSLLKGPSTLDELFEELDKNGDGEVSFEEFQVLVKKISQ [A3V] : abundance fitness value = 0.129
